# Tested on: 786-0 renal
# method summary: NCI tumour cell line growth inhibition, 48 h; in the data active means GI50 below about 0.43 µM; inactive means the rest
Entry note: the call must match one of active, inactive

Returns: the outcome recorded for `CCn1cc(C(=O)O)c(=O)c2cc(F)c(N3CCN(S(=O)(=O)c4ccc(Cl)cc4Cl)CC3)cc21` in this assay. inactive

Returns: the outcome recorded for Nc1ncn([C@H]2CC(O)[C@@H](CO)S2)c(=O)n1 (stereo not given in full) in this assay. inactive

Returns: the outcome recorded for `Cn1c(=O)c(-c2ccccc2Cl)cc2cnc(NC3CCOCC3)nc21` in this assay. inactive

Returns: the outcome recorded for CC(C)=C[C@@H]1C[C@H](C)[C@H]2CC[C@H](C)c3c(O)c(OC4OC(C)C(O)C(O)C4O)c(C)c1c32 (stereo not given in full) in this assay. inactive

Returns: the outcome recorded for `CCSC[C@@H]1C[C@](O)(c2ccccc2)[C@@H](c2ccccc2)O1` in this assay. inactive

Returns: the outcome recorded for `Cc1ccc(NCCNCC(C)(C)O)c2c(=O)c3ccc(Cl)cc3sc12` in this assay. inactive

Returns: the outcome recorded for `CCc1ccc2c(c1)C(=O)c1c-2n(CCCN)c(=O)c2cc(OC)c(OC)cc12` in this assay. inactive

Returns: the outcome recorded for `O=C(/C=C/c1ccc(O)c(O)c1)N1CCN(c2ccc(Cl)cc2)CC1` in this assay. inactive

Returns: the outcome recorded for `Nc1ccc(CC[C@H]2CCC/C=C/[C@@H]3C[C@H](O)C[C@H]3[C@H](O)/C=C/C(=O)O2)cc1` in this assay. active

Returns: the outcome recorded for `COc1cc2ncn(-c3cc(OCc4ccccc4C(F)(F)F)c(C(N)=O)s3)c2cc1OC` in this assay. inactive
